Experiment: Timed organ biodistribution of [^64Cu]Cu-DOTATATE by ex vivo gamma counting
Type: in vivo, mice
Conditions: mouse, adrenal gland, intravenous, 1.85 MBq, total radioactivity; female Apoe^-/- mice 12 weeks on Western Diet, 120 min after injection, median (IQR), N=3-8; read-out: Tissue radioactivity, adrenal gland
READOUT: tissue uptake at 2 h

MOLECULE | READOUT | MEASUREMENT
C[C@@H](O)[C@H](NC(=O)[C@@H]1CSSC[C@H](NC(=O)[C@@H](Cc2ccccc2)NC(=O)CN2CCN(CC(=O)O)CCN(CC(=O)O)CCN(CC(=O)O)CC2)C(=O)N[C@@H](Cc2ccc(O)cc2)C(=O)N[C@H](Cc2c[nH]c3ccccc23)C(=O)N[C@@H](CCCCN)C(=O)N[C@@H]([C@@H](C)O)C(=O)N1)C(=O)O [[^64Cu]Cu-DOTATATE, metal not drawn] | tissue uptake at 2 h | 1.1 %ID/g

###

Experiment: Timed organ biodistribution of [^64Cu]Cu-DOTATATE by ex vivo gamma counting
Type: in vivo, mice
Conditions: mouse, fat, intravenous, 1.85 MBq, total radioactivity; female Apoe^-/- mice 12 weeks on Western Diet, 120 min after injection, median (IQR), N=3-8; read-out: Tissue radioactivity, fat
READOUT: tissue uptake at 2 h

MOLECULE | MEASUREMENT
C[C@@H](O)[C@H](NC(=O)[C@@H]1CSSC[C@H](NC(=O)[C@@H](Cc2ccccc2)NC(=O)CN2CCN(CC(=O)O)CCN(CC(=O)O)CCN(CC(=O)O)CC2)C(=O)N[C@@H](Cc2ccc(O)cc2)C(=O)N[C@H](Cc2c[nH]c3ccccc23)C(=O)N[C@@H](CCCCN)C(=O)N[C@@H]([C@@H](C)O)C(=O)N1)C(=O)O [[^64Cu]Cu-DOTATATE, metal not drawn] | 0.2 %ID/g

###

Experiment: Timed organ biodistribution of [^64Cu]Cu-DOTATATE by ex vivo gamma counting
Type: in vivo, mice
Conditions: mouse, small intestine, intravenous, 1.85 MBq, total radioactivity; female Apoe^-/- mice 12 weeks on Western Diet, 1 min after injection, median (IQR), N=3-8; read-out: Tissue radioactivity, small intestine

COMPOUND | ENDPOINT UNIT | tissue uptake at 1 min
C[C@@H](O)[C@H](NC(=O)[C@@H]1CSSC[C@H](NC(=O)[C@@H](Cc2ccccc2)NC(=O)CN2CCN(CC(=O)O)CCN(CC(=O)O)CCN(CC(=O)O)CC2)C(=O)N[C@@H](Cc2ccc(O)cc2)C(=O)N[C@H](Cc2c[nH]c3ccccc23)C(=O)N[C@@H](CCCCN)C(=O)N[C@@H]([C@@H](C)O)C(=O)N1)C(=O)O [[^64Cu]Cu-DOTATATE, metal not drawn] | %ID/g | 1.4

###

Test: Organ biodistribution of [^68Ga]Ga-DOTATATE by ex vivo gamma counting
Format: in vivo, New Zealand White rabbits
Details: male, New Zealand White, rabbit, fat, intravenous, 190 MBq, total radioactivity, male athero4mo rabbits, 200 min after tracer injection, median (IQR), N = 9; read-out: Tissue radioactivity, fat
READOUT: tissue uptake at 200 min (%ID/g)

MOLECULE | MEASUREMENT
C[C@@H](O)[C@H](NC(=O)[C@@H]1CSSC[C@H](NC(=O)[C@@H](Cc2ccccc2)NC(=O)CN2CCN(CC(=O)O)CCN(CC(=O)O)CCN(CC(=O)O)CC2)C(=O)N[C@@H](Cc2ccc(O)cc2)C(=O)N[C@H](Cc2c[nH]c3ccccc23)C(=O)N[C@@H](CCCCN)C(=O)N[C@@H]([C@@H](C)O)C(=O)N1)C(=O)O [[^68Ga]Ga-DOTATATE, metal not drawn] | 0.002

Value source: paper PMC9007951
